These measurements were taken from paper PMC9813676.

target.of.assay: porcine pancreatic lipase (Sus scrofa, UniProt P00591)
Sequence (P00591 whole entry): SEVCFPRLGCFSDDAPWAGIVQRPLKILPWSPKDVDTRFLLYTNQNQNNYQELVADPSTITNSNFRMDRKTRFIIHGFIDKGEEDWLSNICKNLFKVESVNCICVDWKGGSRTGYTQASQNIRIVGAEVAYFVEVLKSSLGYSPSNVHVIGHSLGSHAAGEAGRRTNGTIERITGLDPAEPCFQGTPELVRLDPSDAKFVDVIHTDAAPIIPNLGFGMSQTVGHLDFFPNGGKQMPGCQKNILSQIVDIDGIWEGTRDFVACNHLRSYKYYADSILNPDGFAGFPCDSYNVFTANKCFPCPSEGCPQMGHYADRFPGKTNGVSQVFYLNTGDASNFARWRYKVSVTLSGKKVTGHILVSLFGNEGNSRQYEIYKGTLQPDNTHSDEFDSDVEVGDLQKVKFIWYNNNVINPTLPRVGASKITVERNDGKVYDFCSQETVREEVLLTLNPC
assay.explanation: Fluorescence titration of lipase
Assay type: binding
recorded.conditions: fluorescence titration, excitation 280 nm, Tris-HCl pH 8.0
The label depends only on n (number of binding sites): condition met if it is at least 1, condition not met if it is smaller.

>>> group_label("COc1ccc(-c2coc3cc(O)ccc3c2=O)cc1")
"condition not met"
>>> group_label("O=c1c(-c2ccc(O)cc2)coc2cc(O)cc(O)c12")
"condition met"
>>> group_label("O=c1c(-c2ccc(O)cc2)coc2cc(O[C@@H]3O[C@H](CO)[C@@H](O)[C@H](O)[C@H]3O)cc(O)c12")
"condition met"
>>> group_label("O=c1cc(-c2ccccc2)oc2cc(O)c(O)c(O)c12")
"condition met"
>>> group_label("O=c1c(-c2ccc(O)cc2)coc2cc(O)ccc12")
"condition met"
>>> group_label("O=C1c2c(O)cc(O)cc2OC(c2ccc(O)c(O)c2)C1O (stereo not shown)")
"condition not met"
